- System: H441
- EXPERIMENT_NOTES: Proliferation assay (CellTiter Glo)
- Assay type: cell-based
- TEST_PARAMETERS: Homo sapiens, NCI-H441; H441; relative EC50; 96 hours; read-out: Re EC50
QUANTITY_NAME: pEC50
Value format note: pEC50 is -log10 of concentration (mol/L); just state the number.

Below, 3 compounds whose answers are already recorded.
COMPOUND: C/C=C(/C)C(=O)O[C@H]1C(C)=C[C@]23C(=O)[C@@H](C=C(CO)[C@@H](O)[C@]12O)[C@H]1[C@@H](C[C@H]3C)C1(C)C [Compound K102, ingenol-3-angelate]
pEC50: 8.62
--
COMPOUND: CC(=O)O[C@@]12C[C@@H](C)[C@@]3(O)[C@@H](C=C(CO)C[C@]4(O)C(=O)C(C)=C[C@@H]34)[C@@H]1C2(C)C [Compound K101A, 12-deoxyphorbol 13-acetate]
pEC50: 6.49
--
COMPOUND: CC(=O)O[C@H]1C(=O)[C@@]2(C)[C@H]([C@H](OC(=O)c3ccccc3)[C@]3(O)C[C@H](OC(=O)[C@H](O)[C@@H](NC(=O)c4ccccc4)c4ccccc4)C(C)=C1C3(C)C)[C@]1(OC(C)=O)CO[C@@H]1C[C@@H]2O
pEC50: 8.46

Measured pEC50 of CCCCCCCCCCCCCC(=O)O[C@@H]1[C@@H](C)[C@@]2(O)[C@@H](C=C(CO)C[C@]3(O)C(=O)C(C)=C[C@@H]23)[C@@H]2C(C)(C)[C@]12OC(C)=O [Compound K103, 12-O-Tetradecanoylphorbol-13-acetate] : 9.12

---

Each item that follows carries a reported Top Inhibition %.
- Tested on: LS180
- EXPERIMENT_NOTES: Proliferation assay (CellTiter Glo)
- Format: cell-based
- TEST_PARAMETERS: LS180; % of top inhibition; 96 hours
Write the value in % as a bare number.

Solved entries (count: 3):
COMPOUND: CC(=O)OCC1=CC2C3C(C)(C)C3(OC(C)=O)CC(C)C2(O)C2C=C(C)C(=O)C2(O)C1 (stereo not shown) [Compound K101E]
NUMERIC_RESULT: 1.3
//
COMPOUND: CC(=O)O[C@H]1C(=O)[C@@]2(C)[C@H]([C@H](OC(=O)c3ccccc3)[C@]3(O)C[C@H](OC(=O)[C@H](O)[C@@H](NC(=O)c4ccccc4)c4ccccc4)C(C)=C1C3(C)C)[C@]1(OC(C)=O)CO[C@@H]1C[C@@H]2O [Paclitaxel]
NUMERIC_RESULT: 67.1
//
COMPOUND: CC(=O)OC12CC(C)C3(O)C(C=C(CO)CC4(O)C(O)C(C)=CC43)C1C2(C)C (stereo not shown) [Compound K101C]
NUMERIC_RESULT: 6.8

Summary for this compound, C/C=C(/C)C(=O)O[C@H]1C(C)=C[C@]23C(=O)[C@@H](C=C(CO)[C@@H](O)[C@]12O)[C@H]1[C@@H](C[C@H]3C)C1(C)C [Compound K102, ingenol-3-angelate] : Top Inhibition % is 9.3

The recorded Top Inhibition % for CCCCCCCCCCCCCC(=O)O[C@@H]1[C@@H](C)[C@@]2(O)[C@@H](C=C(CO)C[C@]3(O)C(=O)C(C)=C[C@@H]23)[C@@H]2C(C)(C)[C@]12OC(C)=O [Compound K103, 12-O-Tetradecanoylphorbol-13-acetate] is 14.7

Note to self: Top Inhibition % recorded for CC(=O)O[C@@]12C[C@@H](C)[C@@]3(O)[C@@H](C=C(CO)C[C@]4(O)C(=O)C(C)=C[C@@H]34)[C@@H]1C2(C)C [Compound K101A, 12-deoxyphorbol 13-acetate] was 4.4

What the record says about CC(=O)OC12CC(C)C3(O)C(C4OC4(CO)CC4(O)C(O)C(C)=CC43)C1C2(C)C (stereo not shown) [Compound K101D] : Top Inhibition % is 8.2

---

- System: A549 lung cancer cell line
- EXPERIMENT_NOTES: Combination viability/proliferation assays (384-well IC50 ratio, 96-well MacSynergy II)
- Assay type: cell-based
- TEST_PARAMETERS: A549; in combination with 0.02 μM K102; NC: no change
QUANTITY_NAME: Ratio ([…] DMSO IC50/combination IC50)
Response field accepts a number only; no unit should be typed.

Consider the following illustrative entries.
COMPOUND: CC(=O)Nc1cccc(-n2c(=O)n(C3CC3)c(=O)c3c(Nc4ccc(I)cc4F)n(C)c(=O)c(C)c32)c1 [Trametinib]
Ratio ([…] DMSO IC50/combination IC50): 0.44
--
COMPOUND: NC1(c2ccc(-c3nc4ccn5c(=O)[nH]nc5c4cc3-c3ccccc3)cc2)CCC1 [MK2206]
Ratio ([…] DMSO IC50/combination IC50): 5.57
--
COMPOUND: O=C(c1cc(Cc2n[nH]c(=O)c3ccccc23)ccc1F)N1CCN(C(=O)C2CC2)CC1 [Olaparib]
Ratio ([…] DMSO IC50/combination IC50): 2.74
--
COMPOUND: Nc1ccn([C@@H]2O[C@H](CO)[C@@H](O)C2(F)F)c(=O)n1 [Gemcitabine]
Ratio ([…] DMSO IC50/combination IC50): 0.69
--
COMPOUND: Nc1cc(C(F)(F)F)c(-c2cc(N3CCOCC3)nc(N3CCOCC3)n2)cn1 [BKM-120]
Ratio ([…] DMSO IC50/combination IC50): 2.36

With those in mind, consider the next compound.
The measured Ratio ([…] DMSO IC50/combination IC50) associated with CC[C@H](Nc1ncnc2[nH]cnc12)c1nc2cccc(F)c2c(=O)n1-c1ccccc1 [Idelalisib] reads 3.55

---

- System: Pan2.03
- EXPERIMENT_NOTES: Proliferation assay (CellTiter Glo)
- Format: cell-based
- TEST_PARAMETERS: Pan2.03 (K-RAS: G12D); absolute EC50; 96 hours; read-out: Ab EC50
pEC50: −log10 of the molar value.
QUANTITY_NAME: pEC50

COMPOUND: CC(=O)O[C@H]1C(=O)[C@@]2(C)[C@H]([C@H](OC(=O)c3ccccc3)[C@]3(O)C[C@H](OC(=O)[C@H](O)[C@@H](NC(=O)c4ccccc4)c4ccccc4)C(C)=C1C3(C)C)[C@]1(OC(C)=O)CO[C@@H]1C[C@@H]2O
TARGET_DESC: Pan2.03
pEC50: 8.48
//
COMPOUND: C/C=C(/C)C(=O)O[C@H]1C(C)=C[C@]23C(=O)[C@@H](C=C(CO)[C@@H](O)[C@]12O)[C@H]1[C@@H](C[C@H]3C)C1(C)C [Compound K102, ingenol-3-angelate]
TARGET_DESC: Pan2.03
pEC50: < 5.52

GET /value?item= CC(=O)O[C@@]12C[C@@H](C)[C@@]3(O)[C@@H](C=C(CO)C[C@]4(O)C(=O)C(C)=C[C@@H]34)[C@@H]1C2(C)C [Compound K101A, 12-deoxyphorbol 13-acetate] &field=pEC50 returns < 4.52

---

// values below are reported pEC50
- Test system: Pan2.03
- EXPERIMENT_NOTES: Proliferation assay (CellTiter Glo)
- Assay type: cell-based
- TEST_PARAMETERS: Pan2.03 (K-RAS: G12D); absolute EC50; 96 hours; read-out: Ab EC50
pEC50: −log10 of the molar value.

See these solved cases before continuing.
MOLECULE: CC(=O)OC12CC(C)C3(O)C(C=C(COC(=O)CC(N)C(=O)[O-])CC4(O)C(=O)C(C)=CC43)C1C2(C)C.[Na+] (stereo not drawn) [Compound K101I]
pEC50: < 4.52

MOLECULE: CC(=O)OCC1=CC2C3C(C)(C)C3(OC(C)=O)CC(C)C2(O)C2C=C(C)C(=O)C2(O)C1 (stereo not drawn) [Compound K101E]
pEC50: < 4.52

--- query ---
The molecule CCCCCCCCCCCCCC(=O)O[C@@H]1[C@@H](C)[C@@]2(O)[C@@H](C=C(CO)C[C@]3(O)C(=O)C(C)=C[C@@H]23)[C@@H]2C(C)(C)[C@]12OC(C)=O [Compound K103, 12-O-Tetradecanoylphorbol-13-acetate] showed pEC50 equal to < 6.30

---

Reported Top Inhibition % by item:
- System: BxPC-3
- EXPERIMENT_NOTES: Proliferation assay (CellTiter Glo)
- Type: cell-based
- TEST_PARAMETERS: BxPC-3 (RAS WT); 96 hours
Write it as a number; the unit % goes unstated.

MOLECULE: CC(=O)OCC1=CC2C3C(C)(C)C3(OC(C)=O)CC(C)C2(O)C2C=C(C)C(=O)C2(O)C1 (stereo not drawn) [Compound K101E]
TARGET_DESC: BxPC-3
UNIT_DESCRIPTOR: %
Top Inhibition %: 38.87

MOLECULE: CC(=O)OC12CC(C)C3(O)C(C=C(COC(=O)CC(N)C(=O)[O-])CC4(O)C(=O)C(C)=CC43)C1C2(C)C.[Na+] (stereo not drawn) [Compound K101I]
TARGET_DESC: BxPC-3
UNIT_DESCRIPTOR: %
Top Inhibition %: 38.12

MOLECULE: CC(=O)OC12CC(C)C3(O)C(C=C(CO)CC4(O)C(O)C(C)=CC43)C1C2(C)C (stereo not drawn) [Compound K101C]
TARGET_DESC: BxPC-3
UNIT_DESCRIPTOR: %
Top Inhibition %: 36.67

MOLECULE: CC(=O)O[C@@]12C[C@@H](C)[C@@]3(O)[C@@H](C=C(CO)C[C@]4(O)C(=O)C(C)=C[C@@H]34)[C@@H]1C2(C)C [Compound K101A, 12-deoxyphorbol 13-acetate]
TARGET_DESC: BxPC-3
UNIT_DESCRIPTOR: %
Top Inhibition %: 40.11

MOLECULE: CC(=O)O[C@H]1C(=O)[C@@]2(C)[C@H]([C@H](OC(=O)c3ccccc3)[C@]3(O)C[C@H](OC(=O)[C@H](O)[C@@H](NC(=O)c4ccccc4)c4ccccc4)C(C)=C1C3(C)C)[C@]1(OC(C)=O)CO[C@@H]1C[C@@H]2O
TARGET_DESC: BxPC-3
UNIT_DESCRIPTOR: %
Top Inhibition %: 91.93

MOLECULE: CCCCCCCCCCCCCC(=O)O[C@@H]1[C@@H](C)[C@@]2(O)[C@@H](C=C(CO)C[C@]3(O)C(=O)C(C)=C[C@@H]23)[C@@H]2C(C)(C)[C@]12OC(C)=O [Compound K103, 12-O-Tetradecanoylphorbol-13-acetate]
TARGET_DESC: BxPC-3
UNIT_DESCRIPTOR: %
Top Inhibition %: 44.46

MOLECULE: C/C=C(/C)C(=O)O[C@H]1C(C)=C[C@]23C(=O)[C@@H](C=C(CO)[C@@H](O)[C@]12O)[C@H]1[C@@H](C[C@H]3C)C1(C)C [Compound K102, ingenol-3-angelate]
TARGET_DESC: BxPC-3
UNIT_DESCRIPTOR: %
Top Inhibition %: 44.13

MOLECULE: CCC/C=C/C=C/C(=O)O[C@H]1/C(=C/C(=O)OC)C[C@H]2C[C@H]([C@@H](C)O)OC(=O)C[C@H](O)C[C@@H]3C[C@H](OC(C)=O)C(C)(C)[C@](O)(C[C@@H]4C/C(=C/C(=O)OC)C[C@H](/C=C/C(C)(C)[C@]1(O)O2)O4)O3
TARGET_DESC: BxPC-3
UNIT_DESCRIPTOR: %
Top Inhibition %: 3.99

Note to self: Top Inhibition % recorded for CC(=O)OC12CC(C)C3(O)C(C4OC4(CO)CC4(O)C(O)C(C)=CC43)C1C2(C)C (stereo not drawn) [Compound K101D] was 37.49

Provenance of the data: patent US10722484B2
